Attribute: percentages of strains with MFCs ≤1 mcg/ml
System: Cryptococcus neoformans
Test: in vitro antifungal broth dilution, Cryptococcus neoformans (3 strains)
Assay type: cell-based
Conditions: Table R
Give the value in % but do not write % after it.

Consider the following illustrative entries.
>>> value_measured("CCC(C(C)O)n1ncn(-c2ccc(N3CCN(c4ccc(OCC5COC(Cn6cncn6)(c6ccc(F)cc6F)C5)cc4)CC3)cc2)c1=O (stereo not shown) [drawing 27]")
100
>>> value_measured("CCC(C(C)O)n1ncn(-c2ccc(N3CCN(c4ccc(OCC5COC(Cn6cncn6)(c6ccc(F)cc6F)C5)cc4)CC3)cc2)c1=O (stereo not shown) [drawing 26]")
100
>>> value_measured("OC(Cn1cncn1)(Cn1cncn1)c1ccc(F)cc1F [fluconazole, reference compound]")
0

For the compound CCC(C(C)O)n1ncn(-c2ccc(N3CCN(c4ccc(OCC5COC(Cn6cncn6)(c6ccc(F)cc6F)C5)cc4)CC3)cc2)c1=O (stereo not shown) [drawing 25] , what percentages of strains with MFCs ≤1 mcg/ml is on record? 100
